# System: BT-549
# procedure_summary: NCI tumour cell line growth inhibition, 48 h
Active and inactive are the calls of the source. Cut-off read from the data, not from the text of the source: active = GI50 up to about 1.1 µM and inactive = higher.
property_label: GI50

Worked cases, GI50 given:
Reported GI50 for C=C(C(=O)O[C@H]1C(=O)C2=C(C)CCC3C(=C)C(=O)O[C@@H]3C2[C@]1(C)O)C1CC[C@]2(C)CCCC(=C)[C@H]2C1 (some centres not stated) : what is it?
5.04 µM (inactive)

Reported GI50 for Cc1cccc2c1CC1(Cc3ccccc3C1=O)C2=O (configuration not stated) : what is it?
24.7 µM (inactive)

Reported GI50 for OCCCCCNc1cc(O)nc(O)n1 : what is it?
> 100 µM (inactive)

Reported GI50 for C(=C\Nc1ccc(-c2ccccc2)cc1)/C=N/c1ccc(-c2ccccc2)cc1 : what is it?
> 100 µM (inactive)

Reported GI50 for CCOC(=O)Nn1c(C)nnc1-c1ccccc1 : what is it?
> 100 µM (inactive)

Further cases:
Reported GI50 for Fc1ccc(C(OCCN2CCN(CCCCl)CC2)c2ccc(F)cc2)cc1 : what is it?
18.6 µM (inactive)

Reported GI50 for C=CCC1(C#N)C(=S)NC2=C(C(=O)CC(C)(C)C2)C1c1ccccc1 (configuration not stated) : what is it?
66.7 µM (inactive)

Reported GI50 for NS(=O)(=O)c1cc(S(N)(=O)=O)c(NC(=O)N(c2ccccc2)c2ccccc2)c(Cl)c1Cl : what is it?
15.9 µM (inactive)

----------
# Tested on: COLO 205
# procedure_summary: NCI tumour cell line growth inhibition, 48 h
Activity calls are given as the source filed them. Rule as the data show it: active = GI50 up to about 1.1 µM and inactive = higher.
property_label: GI50

Worked cases, GI50 given:
Reported GI50 for O=C(O)c1cc2ccccc2c2c1C(=O)c1ccccc1-2 : what is it?
> 100 µM (inactive)

Reported GI50 for C[C@@H]1CC[C@H]2[C@H](C)C(OC3O[C@@H]4O[C@@]5(C)CC[C@H]6[C@H](C)CC[C@@H]([C@@H]3C)[C@@]46O5)O[C@@H]3O[C@@]4(C)CC[C@@H]1[C@]32O4 (stereo partly specified) : what is it?
> 100 µM (inactive)

Further cases:
Reported GI50 for C=CCN1C(=O)/C(=C/c2ccc(OC)cc2)N=C1SC/C=C/C : what is it?
29.2 µM (inactive)

Reported GI50 for Cc1ccc([N+](=O)[O-])c2c(NCCCN(C)C)ccnc12 : what is it?
15 µM (inactive)

Reported GI50 for CCN(CC)c1ccc2c(c1)Nc1cc(=C(C#N)C#N)c3ccccc3c1=N2 : what is it?
> 100 µM (inactive)

Reported GI50 for COc1ccc(C2OC(N)=C(C#N)C3=C2CCCC3C)cc1OC (stereo unspecified) : what is it?
> 100 µM (inactive)

Reported GI50 for CCOC(=O)C(C#N)(Cc1c[nH]c2ccccc12)NC(C)=O (stereo unspecified) : what is it?
> 100 µM (inactive)

Reported GI50 for OC(c1cccs1)c1cc2ccccc2s1 (stereo unspecified) : what is it?
> 10 µM (inactive)

Reported GI50 for COc1ccc(C2C(Cl)C(=O)N2n2cnc3ccccc3c2=O)cc1 (stereo unspecified) : what is it?
62.2 µM (inactive)

Reported GI50 for CSc1c(C)[n+]([O-])c2cc(Cl)c(Cl)cc2[n+]1[O-] : what is it?
15.5 µM (inactive)

Reported GI50 for Cc1c(OCc2cccc3ccccc23)ccc2c(O)cc(=S)oc12 : what is it?
31.4 µM (inactive)

Reported GI50 for Oc1nc2c(c(-c3ccc(Br)cc3)n1)COC/C2=C\c1ccc(Br)cc1 : what is it?
> 50 µM (inactive)

Reported GI50 for COc1cc(N(Cc2ccc3oc(=O)c(-c4ccccc4)nc3c2)Cc2ccc3oc(=O)c(-c4ccccc4)nc3c2)cc(OC)c1OC : what is it?
> 10 µM (inactive)

Reported GI50 for Cc1cccc2c1CC1(Cc3ccccc3C1=O)C2=O (stereo unspecified) : what is it?
> 100 µM (inactive)

Reported GI50 for O=C(O[C@H](/C=C/c1ccccc1)P1(=O)N(Cc2ccccc2)[C@@H]2CCCC[C@H]2N1Cc1ccccc1)c1ccccc1 : what is it?
2.17 µM (inactive)

----------
# Test system: SN12C
# procedure_summary: NCI tumour cell line growth inhibition, 48 h
Activity calls are given as the source filed them. Rule as the data show it: active = GI50 up to about 1.1 µM and inactive = higher.
Entries and their GI50

Reported GI50 for COC(=O)C(Cc1ccccc1)NC(=O)C(CCCNC(=N)N)NC(=O)OCc1ccccc1 (stereo not given) : what is it?
> 100 µM (inactive)

Reported GI50 for COC(=O)C(c1n[nH]c2ccccc12)C(C(=O)OC)c1n[nH]c2ccccc12 (stereo not given) : what is it?
31.1 µM (inactive)

Reported GI50 for Cc1c(OCc2cccc3ccccc23)ccc2c(O)cc(=S)oc12 : what is it?
48.4 µM (inactive)

Reported GI50 for O=C(O)CCCNS(=O)(=O)c1ccc2ccccc2c1 : what is it?
> 100 µM (inactive)

Here is the next item to consider.
Reported GI50 for CN(C)c1ccc(/C=C2\N=C(c3ccc([N+](=O)[O-])cc3)OC2=O)cc1 : what is it?
> 100 µM (inactive)

----------
# Test system: HOP-62
# procedure_summary: NCI tumour cell line growth inhibition, 48 h
Calls of active or inactive are those of the source. No stated cut-off is given here; in the data, active = GI50 up to about 1.1 µM and inactive = higher.
Pick one and only one: active, inactive

Would you please look over these solved cases?
Please share the test call associated with COc1ccc(C2S/C(=C\c3ccccc3)C(=O)N2NC(=O)Cc2ccccc2)cc1 (stereo unspecified) .
inactive

Please share the test call associated with COC(=O)C(C(=O)C(=O)Nc1ccc(N)cc1[N+](=O)[O-])c1nc2ccc(Cl)cc2nc1O (stereo unspecified) .
inactive

Please share the test call associated with CC(C)(C)OC(=O)N1CC(CCl)c2ccc(O)cc21 (stereo unspecified) .
inactive

Please share the test call associated with O=c1n(-c2ccccc2)c(=O)n2n1C1CCC2CC1 .
inactive

Please share the test call associated with O=C1c2c(Br)sc(Br)c2[C@H]2OC(=S)N[C@@H]12 .
inactive

Further cases:
Please share the test call associated with ClCCNCCNCCCl.ClCCNCCNCCCl.[O-][Cl+3]([O-])([O-])O .
inactive

Please share the test call associated with CCOC(=O)c1c(NC(=O)c2ccc(OC)cc2)sc2c1CCCC2 .
inactive

Please share the test call associated with Nc1nccc(NCC2(CO)CC(CCc3ccccc3)C2)n1 (stereo unspecified) .
inactive

Please share the test call associated with NNC(=O)Cc1cccnc1 .
inactive

Please share the test call associated with Clc1ccc(CCN[C@H]2CCCC[C@H]2N2CCCC2)cc1Cl .
inactive

Please share the test call associated with S=C(N/N=C(/c1ccccc1)c1ccccn1)Nc1ccccc1Cl .
inactive

Please share the test call associated with Cc1csc2c(P(=O)(OC(C)C)OC(C)C)c(-c3ccccc3)cn12 .
inactive

Please share the test call associated with Fc1ccc(C(OCCN2CCN(CCCCl)CC2)c2ccc(F)cc2)cc1 .
inactive

Please share the test call associated with CC(C)(C)NC1=NC(C(F)(F)F)(C(F)(F)F)NC(=O)N1 .
inactive

----------
# Tested on: CAKI-1
# procedure_summary: NCI tumour cell line growth inhibition, 48 h
Active and inactive are the calls of the source. Cut-off read from the data, not from the text of the source: active = GI50 up to about 1.1 µM and inactive = higher.
Pick one and only one: y (active), n (inactive)

Please share the test call associated with CCOc1cccc(/C=N\c2ccccc2SSc2ccccc2/N=C\c2cccc(OCC)c2O)c1O .
n

Please share the test call associated with COc1ccc(NC2Oc3cc4c(cc3C(c3cc(OC)c(OC)c(OC)c3)C2C)OCO4)cc1 (stereo not given) .
y

Please share the test call associated with COC(=O)c1ccc(OCc2ccc3nc(OC)c(OC)nc3c2)cc1 .
n

With those in mind, consider the next molecule.
Please share the test call associated with c1csc(-c2csc(-c3ccsc3)c2)c1 .
n

----------
# Test system: MOLT-4
# procedure_summary: NCI tumour cell line growth inhibition, 48 h
Activity calls are given as the source filed them. No stated cut-off is given here; in the data, active = GI50 up to about 1.1 µM and inactive = higher. Peptide text beside a SMILES is read from it. * marks the point of attachment. X27 = Clc1c(Cl)c(Cl)c(O*)c(Cl)c1Cl; Boc = CC(C)(C)OC(=O)*; OBn = c1ccc(CO*)cc1; Bn = c1ccc(C*)cc1
property_label: GI50

Find GI50 (MOLT-4) for the entry C[C@H](CCC(=O)NN)[C@H]1CC[C@H]2[C@@H]3CC[C@@H]4C[C@H](O)CC[C@]4(C)[C@H]3CC[C@]12C
10.4 µM (inactive)

Find GI50 (MOLT-4) for the entry CC(NC(=O)/C(=C/c1ccccc1O)NC(=O)c1ccccc1)C(=O)O (stereo unspecified)
> 100 µM (inactive)

Find GI50 (MOLT-4) for the entry CC(C)CC(NC(=O)C(CCC(=O)OCc1ccccc1)NC(=O)OC(C)(C)C)C(=O)NC(COCc1ccccc1)C(=O)NC(Cc1ccccc1)C(=O)Oc1c(Cl)c(Cl)c(Cl)c(Cl)c1Cl (stereo unspecified) (Boc-E(OBn)LS(Bn)F-X27; configuration not given here)
22.6 µM (inactive)

Find GI50 (MOLT-4) for the entry COC(=O)[C@@H]1Cc2cc(O)c(O)cc2C2(CCN(C)CC2)O1
> 10 µM (inactive)

Further cases:
Find GI50 (MOLT-4) for the entry COc1ccc(/C=N/NS(=O)(=O)c2ccccc2)cc1
> 100 µM (inactive)

Find GI50 (MOLT-4) for the entry C[C@@H]1CC[C@@H]2[C@@H](C1)O[C@@H]([C@@H](C)OCc1ccccc1)SC2(C)C
16.1 µM (inactive)

Find GI50 (MOLT-4) for the entry CC(=O)O[C@H]1CC[C@@]2(C)C(=CC[C@@H]3[C@@H]2CC[C@]2(C)c4c(C)nn(-c5ccccc5)c4C[C@@H]32)C1
13.2 µM (inactive)

Find GI50 (MOLT-4) for the entry Oc1nc2c(c(-c3ccc(Br)cc3)n1)COC/C2=C\c1ccc(Br)cc1
> 50 µM (inactive)
